Where do these numbers come from? They come from ChEMBL document CHEMBL1649134.

Tested on: Klebsiella aerogenes
Experiment: Antimicrobial activity against multidrug resistant Enterobacter aerogenes isolate 23 by broth dilution method in presence of 26.3 mg/L efflux pump inhibitor phenylalanine-arginine-beta-naphthylamide
Type: functional
measured.property: MIC
Please state the value followed by its unit.

Form field MIC, entry O=C(N[C@H](CO)[C@H](O)c1ccc([N+](=O)[O-])cc1)C(Cl)Cl : 64 µg/mL

Form field MIC, entry C[C@@H]1CN(c2c(F)c(N)c3c(=O)c(C(=O)O)cn(C4CC4)c3c2F)C[C@H](C)N1 : 4 µg/mL

Form field MIC, entry CCn1cc(C(=O)O)c(=O)c2cc(F)c(N3CCNCC3)cc21 : 256 µg/mL

Form field MIC, entry CN(C)[C@@H]1C(O)=C(C(N)=O)C(=O)[C@@]2(O)C(O)=C3C(=O)c4c(O)cccc4[C@@](C)(O)[C@H]3C[C@@H]12 : 8 µg/mL

* * *

Test system: Klebsiella aerogenes
Assay: Antimicrobial activity against multidrug resistant Enterobacter aerogenes ATCC 15038 by broth dilution method
Assay type: functional
measured.property: MIC (µg/mL)
Quick reminder: number only, in µg/mL, skip the unit.

Form field MIC, entry CC(C)(O/N=C(\C(=O)N[C@@H]1C(=O)N2C(C(=O)[O-])=C(C[n+]3ccccc3)CS[C@H]12)c1csc(N)n1)C(=O)O : 0.25

Form field MIC, entry CO[C@@]1(NC(=O)Cc2cccs2)C(=O)N2C(C(=O)O)=C(COC(N)=O)CS[C@@H]21 : 128

Form field MIC, entry CN(C)[C@@H]1C(O)=C(C(N)=O)C(=O)[C@@]2(O)C(O)=C3C(=O)c4c(O)cccc4[C@@](C)(O)[C@H]3C[C@@H]12 : 1

Form field MIC, entry CO/N=C(\C(=O)N[C@@H]1C(=O)N2C(C(=O)[O-])=C(C[N+]3(C)CCCC3)CS[C@H]12)c1csc(N)n1 : 0.03

Form field MIC, entry C[C@@H](O)[C@H]1C(=O)N2C(C(=O)O)=C(SCCNC=N)C[C@H]12 [IMIPENEM ANHYDROUS] : 0.25

Form field MIC, entry CCn1cc(C(=O)O)c(=O)c2cc(F)c(N3CCNCC3)cc21 : 0.125

Form field MIC, entry O=C(N[C@H](CO)[C@H](O)c1ccc([N+](=O)[O-])cc1)C(Cl)Cl : 2

* * *

Tested on: Klebsiella pneumoniae
Test: Antimicrobial activity against multidrug resistant Klebsiella pneumoniae isolate 3 by broth dilution method in presence of 26.3 mg/L efflux pump inhibitor phenylalanine-arginine-beta-naphthylamide
Assay type: functional
measured.property: MIC (µg/mL)
Quick reminder: number only, in µg/mL, skip the unit.

Form field MIC, entry CCn1cc(C(=O)O)c(=O)c2cc(F)c(N3CCNCC3)cc21 [NORFLOXACIN] : 128

Form field MIC, entry CN(C)[C@@H]1C(O)=C(C(N)=O)C(=O)[C@@]2(O)C(O)=C3C(=O)c4c(O)cccc4[C@@](C)(O)[C@H]3C[C@@H]12 [TETRACYCLINE] : 256

Form field MIC, entry O=C(N[C@H](CO)[C@H](O)c1ccc([N+](=O)[O-])cc1)C(Cl)Cl [CHLORAMPHENICOL] : 4

Form field MIC, entry C[C@@H]1CN(c2c(F)c(N)c3c(=O)c(C(=O)O)cn(C4CC4)c3c2F)C[C@H](C)N1 [SPARFLOXACIN] : 4
